- Test system: SK-LMS-1
- MEASUREMENT DESCRIPTION: relative viability vs DMSO control (72 h) (fraction); higher = more viable cells
- TEST PARAMETERS: 0.00051 µM
Entries and their measured relative viability follow.
# answer = number (no unit)

Consider the reported relative viability for these compounds:
Prompt line: # get_value(readout='relative viability', item= CCN1CCN(Cc2ccc(Nc3ncc(F)c(-c4cc(F)c5nc(C)n(C(C)C)c5c4)n3)nc2)CC1 [Abemaciclib] )
Response line: 1.05

Prompt line: For the compound CC(C)N1CCN(Cc2cnc(-c3cc(-c4cccc5[nH]ccc45)cc4[nH]ncc34)o2)CC1 [Nemiralisib] , what relative viability is on record?
Response line: 1.02

Prompt line: Would you kindly share the measured relative viability for C=CC(=O)N1CCC([C@@H]2CCNc3c(C(N)=O)c(-c4ccc(Oc5ccccc5)cc4)nn32)CC1 [Zanubrutinib] ?
Response line: 1.04

Alright, here's another compound for you.
Prompt line: # input compound: C=CC(=O)N1CCC[C@@H](n2nc(-c3ccc(Oc4ccccc4)cc3)c3c(N)ncnc32)C1 [Ibrutinib] ; wanted: its relative viability
Response line: 1.01

Taken from the supplement of paper PMC10883282.
